methodSummary: Stability in human serum
Assay type: in vitro ADME
appliedConditions: 37°C, peptide 10^−4 mol/L, aliquots 5 min to 2 h, acetonitrile precipitation, HPLC
No end group written: not given here.
quantityKind: half-life

Give reported half-life value for YNTNHVPLSPKY [CaIX-P1] ~25 min

====

Tested on: CAIX positive SKRC 52 cells
Type: cell-based, human
appliedConditions: 24 h
No end group written: not given here.
quantityKind: pIC50
Give only the number. pIC50 is defined as minus log10 of concentration in molar units.

Input YNTNHVPLSPKY [CaIX-P1] , output reported pIC50. 5.76

Value source: paper PMC3013143
